Target: Gastrin/cholecystokinin type B receptor (Rattus norvegicus)
Sequence (P30553 whole entry): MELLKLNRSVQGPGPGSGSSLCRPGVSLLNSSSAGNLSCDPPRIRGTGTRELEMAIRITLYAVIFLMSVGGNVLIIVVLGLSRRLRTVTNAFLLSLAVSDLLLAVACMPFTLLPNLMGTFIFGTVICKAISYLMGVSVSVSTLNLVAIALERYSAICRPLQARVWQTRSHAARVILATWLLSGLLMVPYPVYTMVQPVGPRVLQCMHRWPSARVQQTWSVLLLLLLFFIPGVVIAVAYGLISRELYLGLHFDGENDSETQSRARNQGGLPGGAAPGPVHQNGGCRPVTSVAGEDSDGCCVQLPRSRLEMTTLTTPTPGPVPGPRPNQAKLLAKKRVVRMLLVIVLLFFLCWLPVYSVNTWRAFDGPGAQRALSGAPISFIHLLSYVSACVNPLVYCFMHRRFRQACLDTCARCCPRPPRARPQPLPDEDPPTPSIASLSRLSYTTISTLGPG
Collected IC50 values appear next to each entry.
readout name: IC50

| compound | readout name | reported |
| --- | --- | --- |
| Cc1cccc(NC(=O)NC2N=C(c3ncc[nH]3)c3ccccc3N(CC(=O)C(C)(C)C)C2=O)c1 (centres undefined) | IC50 | 8 nM |
| Cc1cccc(NC(=O)NC2N=C(c3cnccn3)c3ccccc3N(CC(=O)C(C)(C)C)C2=O)c1 (centres undefined) | IC50 | 0.88 nM |
| Cc1cccc(NCNC2N=C(c3nccs3)c3ccccc3N(CC(=O)C(C)(C)C)C2=O)c1 (centres undefined) | IC50 | 0.8 nM |
| Cc1cccc(NC(=O)NC2N=C(c3nccn3C)c3ccccc3N(CC(=O)C(C)(C)C)C2=O)c1 (centres undefined) | IC50 | 4.52 nM |
